System: Escherichia coli
Procedure summary: Antimicrobial activity against Escherichia coli after 24 hrs by agar well diffusion assay
Assay type: functional
Exercise: for every item that follows, state its recorded inhibition zone (IZ).
Quick note: give the figure in mm, leave out the unit.

[Q] // lookup inhibition zone (IZ) for CCn1c(-c2ccc(-n3cncn3)cc2)nc2c(F)cc(F)cc21
[A] 16

[Q] // lookup inhibition zone (IZ) for Cc1cccc(Cn2c(-c3ccc(-n4cncn4)cc3)nc3c(F)cc(F)cc32)c1
[A] 18

[Q] // lookup inhibition zone (IZ) for Cc1ccccc1Cn1c(-c2ccc(-n3cncn3)cc2)nc2c(F)cc(F)cc21
[A] 18

[Q] // lookup inhibition zone (IZ) for Fc1cc(F)c2nc(-c3ccc(-n4cncn4)cc3)n(Cc3cccc(C(F)(F)F)c3)c2c1
[A] 20

[Q] // lookup inhibition zone (IZ) for Fc1cc(F)c2nc(-c3ccc(-n4cncn4)cc3)n(Cc3ccccc3)c2c1
[A] 15

[Q] // lookup inhibition zone (IZ) for Cn1c(-c2ccc(-n3cncn3)cc2)nc2c(F)cc(F)cc21
[A] 21

[Q] // lookup inhibition zone (IZ) for Fc1ccc(Cn2c(-c3ccc(-n4cncn4)cc3)nc3c(F)cc(F)cc32)cc1
[A] 19

[Q] // lookup inhibition zone (IZ) for COc1cccc(Cn2c(-c3ccc(-n4cncn4)cc3)nc3c(F)cc(F)cc32)c1
[A] 22

[Q] // lookup inhibition zone (IZ) for C#CCn1c(-c2ccc(-n3cncn3)cc2)nc2c(F)cc(F)cc21
[A] 21

[Q] // lookup inhibition zone (IZ) for Fc1cccc(Cn2c(-c3ccc(-n4cncn4)cc3)nc3c(F)cc(F)cc32)c1
[A] 22

[Q] // lookup inhibition zone (IZ) for N#CCn1c(-c2ccc(-n3cncn3)cc2)nc2c(F)cc(F)cc21
[A] 24

[Q] // lookup inhibition zone (IZ) for C=CCn1c(-c2ccc(-n3cncn3)cc2)nc2c(F)cc(F)cc21
[A] 23

[Q] // lookup inhibition zone (IZ) for Fc1cc(F)c2nc(-c3ccc(-n4cncn4)cc3)n(Cc3cccc(Cl)c3)c2c1
[A] 19

[Q] // lookup inhibition zone (IZ) for CCCn1c(-c2ccc(-n3cncn3)cc2)nc2c(F)cc(F)cc21
[A] 18

[Q] // lookup inhibition zone (IZ) for Cc1ccc(S(=O)(=O)n2c(-c3ccc(-n4cncn4)cc3)nc3c(F)cc(F)cc32)cc1
[A] 16
